Test system IRAK4 (Homo sapiens), IC50 listed for each of the molecules.

| molecule | IC50 |
| --- | --- |
| O=C1OC2(CCCC2)c2nc(Nc3cc(N[C@H](CO)c4ccccc4)c(-c4nc(C5CC5)no4)cn3)ccc21 | 0.05 to 0.25 µM |
| CC1(C)OC(=O)c2ccc(Nc3ncc(C(=O)NCc4ccccn4)c(N[C@H](CO)c4ccccc4)n3)cc21 | 0.05 to 0.25 µM |
| CC1(C)OC(=O)c2ccc(Nc3ncc(-c4nnc(C(C)(O)C(F)(F)F)o4)c(N[C@H](CO)c4ccccc4)n3)cc21 (some centres unmarked) | 0.25 to 1 µM |
| CC1(C)OC(=O)c2ccc(Nc3ncc(-c4nnc(C5CCS(=O)(=O)CC5)o4)c(N[C@H](CO)c4ccccc4)n3)cc21 | 0.05 to 0.25 µM |
| C#CCNC(=O)c1cnc(Nc2ccc3c(c2)C(C)(C)OC3=O)nc1N[C@H](CO)c1ccccc1 | 0.25 to 1 µM |
| COCCNC(=O)c1cnc(Nc2ccc3c(c2)C(C)(C)OC3=O)nc1N[C@H](CO)c1ccccc1 | 0.05 to 0.25 µM |
| CC(C)(O)c1nnc(-c2cnc(Nc3ccc4c(c3)C(C)(C)OC4=O)nc2N[C@H](CO)c2ccccc2)o1 | 0.05 to 0.25 µM |
| CC1(C)OC(=O)c2ccc(Nc3cc(N[C@H](CO)c4ccc(F)cc4)c(-c4nc(C56CCN(CC5)CC6)no4)cn3)nc21 | 0.05 to 0.25 µM |
| CC1(C)OC(=O)c2ccc(Nc3ncc(C(=O)NNC(=O)C(C)(O)C(F)(F)F)c(N[C@H](CO)c4ccccc4)n3)cc21 (some centres unmarked) | 0.25 to 1 µM |
| CC(C)CNC(=O)c1cnc(Nc2ccc3c(c2)C(C)(C)OC3=O)nc1N[C@H](CO)c1ccccc1 | 0.25 to 1 µM |
| CC1(C)OC(=O)c2ccc(Nc3ncc(-c4nc(C5CC(F)(F)C5)no4)c(N[C@H](CO)c4ccccc4)n3)cc21 | 0.25 to 1 µM |
| CC1(C)OC(=O)c2ccc(Nc3ncc(-c4nnc(C5(OC(=O)N6CC(F)(F)C6)CC5)o4)c(N[C@H](CO)c4ccccc4)n3)cc21 | 0.25 to 1 µM |
| CC1(C)OC(=O)c2ccc(Nc3ncc(-c4nc(-c5cccc(F)c5)no4)c(N[C@H](CO)c4ccccc4)n3)cc21 | 0.25 to 1 µM |
| CN(C)CCNC(=O)c1cnc(Nc2ccc3c(c2)C(C)(C)OC3=O)nc1N[C@H](CO)c1ccccc1 | 0.25 to 1 µM |

====

- target_desc: HPK1 (Homo sapiens)
- Construct: purchased SignalChem M23-11G
- Sequence (Q92918 1-346 limits assumed): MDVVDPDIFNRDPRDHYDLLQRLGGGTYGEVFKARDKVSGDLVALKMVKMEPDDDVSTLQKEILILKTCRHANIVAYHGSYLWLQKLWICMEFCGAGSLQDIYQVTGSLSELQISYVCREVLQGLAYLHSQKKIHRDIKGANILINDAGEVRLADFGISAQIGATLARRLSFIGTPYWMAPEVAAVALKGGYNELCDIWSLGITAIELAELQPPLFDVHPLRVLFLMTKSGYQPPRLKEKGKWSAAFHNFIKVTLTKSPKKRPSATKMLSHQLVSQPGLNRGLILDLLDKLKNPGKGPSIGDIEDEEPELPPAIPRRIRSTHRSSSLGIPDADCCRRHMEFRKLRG
- experiment_description: HPK1 Inhibition Assay (kinase reaction, Caliper capillary electrophoresis)
- Assay type: biochemical
- stated_conditions: ratio of the IRAK4 IC50 value to the HPK1 IC50 value
- Protocol: The reactions were incubated out for three hours and quenched with 1 mM EDTA solution. The reaction incubation time and enzyme concentration were optimized to obtain a maximum peptide substrate conversion of 20-30%. The reaction mixtures were analyzed by capillary electrophoresis on a Caliper LabChip EZ Reader to resolve phosphorylated and unphosphorylated peptide species and determine peptide substrate conversion. […]

| given_smiles | target_desc | IRAK4/HPK1 Ratio |
| --- | --- | --- |
| CC1(C)OC(=O)c2ccc(Nc3ncc(C(=O)NCc4ccccc4)c(N[C@H](CO)c4ccccc4)n3)cc21 | HPK1 (Homo sapiens) | C (C=>50) |
| CC1(C)OC(=O)c2ccc(Nc3ncc(-c4nc(C5CC5)no4)c(Nc4ccc5[nH]ncc5c4)n3)cc21 | HPK1 (Homo sapiens) | B (B=10 to 50) |
| CC1(C)OC(=O)c2ccc(Nc3ncc(C(=O)NCc4ccccn4)c(N[C@H](CO)c4ccccc4)n3)cc21 | HPK1 (Homo sapiens) | B (B=10 to 50) |
| Cc1noc(-c2cnc(Nc3ccc4c(c3)C(C)(C)OC4=O)nc2NCc2ccccc2C(C)(C)O)n1 | HPK1 (Homo sapiens) | B (B=10 to 50) |
| CC1(C)OC(=O)c2ccc(Nc3ncc(-c4nc(-c5cccnc5)no4)c(N[C@H](CO)c4ccccc4)n3)cc21 | HPK1 (Homo sapiens) | C (C=>50) |
| CC1(C)OC(=O)c2ccc(Nc3ncc(C(=O)NNC(=O)c4cccnc4)c(N[C@H](CO)c4ccccc4)n3)cc21 | HPK1 (Homo sapiens) | B (B=10 to 50) |
| CC1(C)OC(=O)c2ccc(Nc3ncc(-c4nc(-c5cccc(F)c5)no4)c(N[C@H](CO)c4ccccc4)n3)cc21 | HPK1 (Homo sapiens) | B (B=10 to 50) |
| CCOC(=O)c1cnc(Nc2ccc3c(c2)C(C)(C)OC3=O)nc1NCc1ccccc1C(C)(C)O | HPK1 (Homo sapiens) | B (B=10 to 50) |

Value source: patent US11166959B2
